The measured values listed here are drawn from the NIST ThermoML archive (doi:10.1016/j.jct.2019.02.011).

Conditions: 293.15 K; 25000 kPa; Liquid; Vibrating tube method
Quick reference for mass density among some molecules
Value type: mass density (kg/m3)

[[record]]
molecule = "CCO"
unit_annotation = "kg/m3"
reported_measurement = 809.12

[[record]]
molecule = "COC(=O)OC [dimethyl carbonate]"
unit_annotation = "kg/m3"
reported_measurement = 1091.03

[[record]]
molecule = "CCCO"
unit_annotation = "kg/m3"
reported_measurement = 820.74

[[record]]
molecule = "CO"
unit_annotation = "kg/m3"
reported_measurement = 812.34


---

Details: 308.15 K; 15000 kPa; Liquid; Vibrating tube method
Value type: mass density (kg/m3)

[[record]]
compound = "CO"
reported_measurement = 791.23

[[record]]
compound = "COC(=O)OC [dimethyl carbonate]"
reported_measurement = 1064.3

[[record]]
compound = "CCO"
reported_measurement = 789.62

[[record]]
compound = "CCCO"
reported_measurement = 802.79


---

mass density values for the compounds below.
Conditions: 298.15 K; 35000 kPa; Liquid; Vibrating tube method
Value type: mass density (kg/m3)

[[record]]
compound = "COC(=O)OC [dimethyl carbonate]"
reported_measurement = 1092.44

[[record]]
compound = "CCO"
reported_measurement = 811.58

[[record]]
compound = "CO"
reported_measurement = 815.2

[[record]]
compound = "CCCO"
reported_measurement = 822.87


---

Conditions: 308.15 K; 25000 kPa; Liquid; Vibrating tube method
Value type: mass density (kg/m3)

[[record]]
compound = "COC(=O)OC [dimethyl carbonate]"
reported_measurement = 1073

[[record]]
compound = "CCO [ethanol]"
reported_measurement = 797.42

[[record]]
compound = "CO [methanol]"
reported_measurement = 799.85

[[record]]
compound = "CCCO [propan-1-ol]"
reported_measurement = 809.72


---

Details: 298.15 K; 25000 kPa; Liquid; Vibrating tube method
± gives the expanded uncertainty stated by the source.
Each entry below carries its recorded mass density.
Value type: mass density

[[record]]
compound = "CO"
value_type = "mass density"
reported_measurement = "808.04 ± 0.57 kg/m3"

[[record]]
compound = "CCCO"
value_type = "mass density"
reported_measurement = "816.92 ± 0.58 kg/m3"

[[record]]
compound = "COC(=O)OC [dimethyl carbonate]"
value_type = "mass density"
reported_measurement = "1084.89 ± 0.61 kg/m3"

[[record]]
compound = "CCO"
value_type = "mass density"
reported_measurement = "805.07 ± 0.58 kg/m3"


---

Entries and their measured mass density follow.
Conditions: 303.15 K; 10000 kPa; Liquid; Vibrating tube method
Value type: mass density (kg/m3)

[[record]]
compound = "CCO"
reported_measurement = 789.66

[[record]]
compound = "CO"
reported_measurement = 791.31

[[record]]
compound = "CCCO"
reported_measurement = 803.13

[[record]]
compound = "COC(=O)OC [dimethyl carbonate]"
reported_measurement = 1066.02


---

Some compounds, each annotated with its measured mass density.
Details: 298.15 K; 100 kPa; Liquid; Vibrating tube method
Numbers after ± are expanded uncertainties.
Value type: mass density

[[record]]
compound = "CCO"
value_type = "mass density"
reported_measurement = "785.59 ± 0.52 kg/m3"

[[record]]
compound = "CO"
value_type = "mass density"
reported_measurement = "786.76 ± 0.51 kg/m3"

[[record]]
compound = "COC(=O)OC [dimethyl carbonate]"
value_type = "mass density"
reported_measurement = "1063.45 ± 0.56 kg/m3"

[[record]]
compound = "CCCO"
value_type = "mass density"
reported_measurement = "799.61 ± 0.52 kg/m3"

